Ref: the supplement of paper PMC8728848

- measuredTarget: Fuc(a1-2)[Gal(a1-3)]Gal(b1-4)[Fuc(a1-3)]GlcNAc
- testSummary: glycan array binding signal (z-score within array); higher = stronger binding
- protocolConditions: glycan notation: IUPAC condensed, linker removed
This is one part of a sample in which the strongest signals are shown more often than they occur.
reportedMetric: glycan array binding signal (z-score)
Answers are plain numbers.

For each of the binders below, state glycan array binding signal (z-score).
1. Loc1 (Escherichia coli) (protein) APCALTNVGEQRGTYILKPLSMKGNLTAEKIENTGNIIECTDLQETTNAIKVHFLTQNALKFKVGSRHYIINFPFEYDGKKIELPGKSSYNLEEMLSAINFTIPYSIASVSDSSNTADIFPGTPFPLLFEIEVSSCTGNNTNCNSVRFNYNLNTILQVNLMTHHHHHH
2. CVNH3T (Magnaporthe grisea) (protein) GSHIGPYGNYAGNFSGSSRDICLDGARLRAECRRGDGGYSTSVIDLNRYLSNDNGHFRWVSGGGGGGGTATVTVQQGDTLRDIGRRFDCDFHEIARRNNIQNEDLIYPGQVLQVPTKGGSGGGAGNFWDSARDVRLVDGGKVLEAELRYSGGWNRSRIYLDEHIGNRNGELIHC

1. -0.548
2. -0.226
